Assay: Compound was tested for its stability by HPLC method, value expressed as half life
Assay type: physicochemical
Label not fulfilled if half-life falls below 1 h; label fulfilled in every other case.

Previously resolved entries follow.
C[C@H]1C(=O)N(C(=O)NCc2ccccc2)[C@@H]1Oc1ccc(C(=O)O)cc1 = fulfilled
C[C@H]1C(=O)N(C(=O)NCc2ccccc2)[C@@H]1Oc1ccc(C(=O)C(C)(C)C)cc1 = fulfilled

Could you tell me if the measured half-life of O=C(O)c1ccc(O[C@@H]2CC(=O)N2C(=O)NCc2ccccc2)cc1 reaches 1 h or more?
fulfilled

Could you tell me if the measured half-life of CC(=O)O[C@@H]1CC(=O)N1C(=O)NCc1ccccc1 reaches 1 h or more?
not fulfilled

Could you tell me if the measured half-life of CC[C@H]1C(=O)N(C(=O)NCc2ccccc2)[C@@H]1Oc1ccc(C(=O)O)cc1 reaches 1 h or more?
fulfilled

----------
Target: Capsid scaffolding protein (Human cytomegalovirus (strain AD169) (HHV-5) (Human herpesvirus 5))
Assay: Concentration required to inhibit the mutant alpha-Ala HCMV protease by 50% was determined
Output true for records whose IC50 is lower than 30 µM, false for records at or above 30 µM.

Please state whether IC50 is below 30 µM for CCCCNC(=O)N1C(=O)C[C@H]1OC(C)=O
false

Please state whether IC50 is below 30 µM for CC(=O)O[C@H]1N(C(=O)NCc2ccccc2)C(=O)C1(C)C
false

Please state whether IC50 is below 30 µM for C[C@H]1C(=O)N(C(=O)NCc2ccccc2)[C@@H]1Oc1ccc(C(=O)C(C)(C)C)cc1
true

Please state whether IC50 is below 30 µM for CC[C@H]1C(=O)N(C(=O)NCc2ccccc2)[C@@H]1Oc1ccc(C(=O)O)cc1
false

----------
Biological target: Capsid scaffolding protein (Human cytomegalovirus (strain AD169) (HHV-5) (Human herpesvirus 5), UniProt P16753)
Sequence (P16753 1-256 limits assumed): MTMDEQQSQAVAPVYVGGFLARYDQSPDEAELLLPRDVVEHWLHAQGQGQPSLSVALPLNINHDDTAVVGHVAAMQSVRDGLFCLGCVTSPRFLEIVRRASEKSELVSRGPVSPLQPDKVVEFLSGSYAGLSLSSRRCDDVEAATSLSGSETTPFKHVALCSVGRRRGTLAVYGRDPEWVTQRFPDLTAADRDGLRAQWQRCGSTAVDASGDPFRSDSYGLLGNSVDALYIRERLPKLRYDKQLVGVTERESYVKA
Experiment: Concentration required to inhibit the mutant alpha-Ala HCMV protease by 50% was determined
Property measured: log10(IC50) (log10 of the value in µM)
Note the log scale: values are log10 of IC50 expressed in µM.

For orientation, consider the following solved cases.
CC(=O)O[C@@H]1[C@H](C)C(=O)N1C(=O)NCc1ccccc1 = 1.43
C[C@H]1C(=O)N(C(=O)NCc2ccccc2)[C@@H]1Oc1ccc(C(=O)O)cc1 = 1.30
CC(C)NC(=O)N1C(=O)C[C@H]1Oc1ccc(C(=O)O)cc1 = 2.00
CC(=O)O[C@@H]1[C@@H](C)C(=O)N1C(=O)Nc1ccccc1 = 1.93
CC(=O)O[C@@H]1[C@@H](C)C(=O)N1C(=O)NCc1ccccc1 = 0.81

What does the record list as log10(IC50) for CC(=O)O[C@@H]1CC(=O)N1C(=O)NCc1ccccc1 ?
1.62

Cited source: ChEMBL document CHEMBL1130748
